Target: T1, ZFP SBS#1404 (synthetic)
T1 chain: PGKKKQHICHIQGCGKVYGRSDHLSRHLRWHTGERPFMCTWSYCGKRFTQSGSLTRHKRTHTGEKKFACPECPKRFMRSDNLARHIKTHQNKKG
Assay: EMSA
Details: tags: MBP fusion
assay-metric: pKd
Please keep in mind that pKd is minus log10 of the molar concentration; only the number is needed.

Exercise: Identify pKd associated with the binder GAGGCAGGG (dsDNA) DNA 1: GAGGCAGGG DNA 2: CCCTGCCTC
Key: 10.66
